The measurements presented in this section are drawn from the supplement of paper PMC10065799.

# Test Target: SHP2-C SH2
# Assay Protocol: SH2 binding enrichment of the phosphorylated peptide, bacterial display (enrichment ratio); higher = better substrate or ligand; peptides without Tyr show the background
Returns one of true or false; true when SH2 binding enrichment is >= 0.7.

A selection of reference data follows.
Sequence: GNEEAYGRSHI [FAM171B_Y522]
Label Class: true
//
Sequence: NDEDIYKGLPD [VAV3_Y141]
Label Class: true
//
Sequence: IIGNGYYFRVF [MYBPC3_Y1135]
Label Class: false
//
Sequence: HFGNNYRDVLQ [MACC1_Y803_YF]
Label Class: true
//
Sequence: KSMFVYCTPNK [ATP2A2_Y497_S495F]
Label Class: false
//
Sequence: KRNSLYSFSDH [CCDC82_Y331_Q327R]
Label Class: true
//
Sequence: MRALIYNSSTV [PLEKHA7_Y243_A248V]
Label Class: false
//
Sequence: PPPPAYDDMAQ [TNK2_Y635_V638M]
Label Class: false
//
Sequence: AHPIIYTIIEA [PYKtide_no-pT_2014]
Label Class: true
//
Sequence: NSNAAYEESHF [LRIF1_Y714_Q716E]
Label Class: false

Exercise: hey, is SH2 binding enrichment for this one >= 0.7? SSAAGYACLAF [MVD_Y131_YF]
Key: true

Exercise: Also VVPGSYDRLRV [IFT172_Y260_L257P] , if possible.
Key: true

Exercise: PSQRRYVYYYS [PTEN_Y174] , same question.
Key: true

---

# Tested on: AncSZ
# Assay Protocol: phosphorylation enrichment, bacterial display (enrichment ratio); higher = better substrate or ligand; peptides without Tyr show the background
Criterion: phosphorylation enrichment meeting or surpassing 1. Met: true. Not met: false.

Worked examples, 5 sequences total:
Sequence: KEAALYPHLPP [SQSTM1_Y383]
Label Class: false
//
Sequence: MDNQEYKDAYT [BRDT_Y331_K336T]
Label Class: true
//
Sequence: KLSFSYGRALQ [ALDOB_Y302]
Label Class: false
//
Sequence: TLNVRYESVQA [CEACAM7_Y236]
Label Class: false
//
Sequence: NCLREYVAGRF [CRB1_Y711]
Label Class: false

Exercise: Is reported phosphorylation enrichment greater than or equal to 1 here: FFHCTYKQRMI [CLEC12A_Y242_K244Q_YF]
Key: true

Exercise: Repeat for the following sequence: SLEKSYELLDG [ACTB_Y240_P243L]
Key: true

---

# Tested on: AncSZ
# Assay Protocol: phosphorylation enrichment, bacterial display (enrichment ratio); higher = better substrate or ligand; peptides without Tyr show the background
Quick list: phosphorylation enrichment per entry.
Answer with the value's number alone.

Known results for sequences:
Sequence: QPAGNYSLSSV [ARFGAP3_Y473]
Observed Result: 0.985
//
Sequence: VKALKYKSMKI [ITGA11_Y1098_L1093V]
Observed Result: 0.396
//
Sequence: IKAGAYDFPSL [CAMK2A_Y230_P235L]
Observed Result: 0.761
//
Sequence: PLRAYYLIARV [HLCS_Y635_D634Y]
Observed Result: 1.17

Exercise: Entry AGLVQYFMEHH [PTPN11_Y80_E76G_YF] has what phosphorylation enrichment?
Key: 0.955

Exercise: Also YAREGYSALPQ [SARS2_Y52] , if possible.
Key: 0.678

Exercise: Moving on to the next sequence: QNTGDYFDLFG [PTPN11_Y62_YF]
Key: 8.28

Exercise: // same read-out, input: GAEIVYKSPVV [MAPT_Y711]
Key: 0.892

Exercise: Also check HKLSYCEYDFE [BTK_Y40_Y40C]
Key: 1.78

Exercise: What about this sequence? FLEKFYKFGSR [NNMT_Y25_YF]
Key: 0.723

Exercise: Also check LEDEVCAQKMK [TPM2_Y261_Y261C]
Key: 1.6

Exercise: Then this sequence: EFGFRYELVQY [UGGT2_Y1289_Y1285F]
Key: 1.11

Exercise: Queued: SEEVTYATLTF [CLEC12B_Y7]
Key: 1.48

Exercise: Now try AEEEIYGEFEA [Src_opt_1995] .
Key: 1.51

Exercise: What do we get for SSAAGYACLAF [MVD_Y131_YF] ?
Key: 0.948

Exercise: Same question, HYPDVYAWEQL [ALX3_Y181_R183W] this time
Key: 1.14

Exercise: Next: ITNLLYHVVSW [GBA_Y412_G416S]
Key: 1.46

Exercise: One more sequence: QDGYSYLSRQM [LDLR_Y847_P848L]
Key: 0.71

Exercise: Please do the same for FQCLRYIKQLG [SAMHD1_Y146_R143C] as well.
Key: 0.954

Exercise: Entry EFFDGYWGFSV [ITGA2B_Y265_YF] please
Key: 1.43

Exercise: Quick one: AHPGEYGAEAL [HBA1_Y25_A22P]
Key: 0.801

Exercise: How about this sequence: SVETPYVSVTF [NDRG2_Y47_G48V]
Key: 1.26

Exercise: Please answer likewise for FENGEYIIRQG [PRKG1_Y247_YF]
Key: 1.01

Exercise: Also SLDHPYEKPRK [INAVA_Y333] , if possible.
Key: 0.741

Exercise: What about this sequence? VTRANYFIRDE [GNAS_Y339_K338N]
Key: 0.705

---

Property: SH2 binding enrichment; scope: individual sequences
# Test Target: c-Src SH2
# Assay Protocol: SH2 binding enrichment of the phosphorylated peptide, bacterial display (enrichment ratio); higher = better substrate or ligand; peptides without Tyr show the background
Keep it simple and answer with nothing but the number.

Look over these answered cases.
Sequence: RWHEGYRQTPR [CD44_Y412_K417R]
SH2 binding enrichment: 1.7
--
Sequence: NPQKSYFILLY [WAS_Y83_R86L]
SH2 binding enrichment: 0.573
--
Sequence: MPQNEYIELHR [NSA2_Y6]
SH2 binding enrichment: 0.601

Exercise: Recall the recorded SH2 binding enrichment for FKGIVYSVSSD [DCX_Y70_A71S] with c-Src SH2 and state it.
Key: 0.456

Exercise: // query: EWLRRYLKNGK [HLA-C_Y195_E197K]
Key: 0.436

Exercise: Again, but for SISLKYEGRVY [ABL1_Y167_R166K]
Key: 0.388

Exercise: Check EVEPTYVVLFD [ERCC4_Y577_R576T_YF] too.
Key: 0.51

Exercise: Then what about the sequence LDTSQYFRLFN [CPT2_Y217_M214T] ?
Key: 0.472

Exercise: Check AHPGEYGAEAL [HBA1_Y25_A22P] too.
Key: 0.508

---

# Test Target: Jak2 (UniProt O60674)
# Sequence (O60674 whole entry, looked up): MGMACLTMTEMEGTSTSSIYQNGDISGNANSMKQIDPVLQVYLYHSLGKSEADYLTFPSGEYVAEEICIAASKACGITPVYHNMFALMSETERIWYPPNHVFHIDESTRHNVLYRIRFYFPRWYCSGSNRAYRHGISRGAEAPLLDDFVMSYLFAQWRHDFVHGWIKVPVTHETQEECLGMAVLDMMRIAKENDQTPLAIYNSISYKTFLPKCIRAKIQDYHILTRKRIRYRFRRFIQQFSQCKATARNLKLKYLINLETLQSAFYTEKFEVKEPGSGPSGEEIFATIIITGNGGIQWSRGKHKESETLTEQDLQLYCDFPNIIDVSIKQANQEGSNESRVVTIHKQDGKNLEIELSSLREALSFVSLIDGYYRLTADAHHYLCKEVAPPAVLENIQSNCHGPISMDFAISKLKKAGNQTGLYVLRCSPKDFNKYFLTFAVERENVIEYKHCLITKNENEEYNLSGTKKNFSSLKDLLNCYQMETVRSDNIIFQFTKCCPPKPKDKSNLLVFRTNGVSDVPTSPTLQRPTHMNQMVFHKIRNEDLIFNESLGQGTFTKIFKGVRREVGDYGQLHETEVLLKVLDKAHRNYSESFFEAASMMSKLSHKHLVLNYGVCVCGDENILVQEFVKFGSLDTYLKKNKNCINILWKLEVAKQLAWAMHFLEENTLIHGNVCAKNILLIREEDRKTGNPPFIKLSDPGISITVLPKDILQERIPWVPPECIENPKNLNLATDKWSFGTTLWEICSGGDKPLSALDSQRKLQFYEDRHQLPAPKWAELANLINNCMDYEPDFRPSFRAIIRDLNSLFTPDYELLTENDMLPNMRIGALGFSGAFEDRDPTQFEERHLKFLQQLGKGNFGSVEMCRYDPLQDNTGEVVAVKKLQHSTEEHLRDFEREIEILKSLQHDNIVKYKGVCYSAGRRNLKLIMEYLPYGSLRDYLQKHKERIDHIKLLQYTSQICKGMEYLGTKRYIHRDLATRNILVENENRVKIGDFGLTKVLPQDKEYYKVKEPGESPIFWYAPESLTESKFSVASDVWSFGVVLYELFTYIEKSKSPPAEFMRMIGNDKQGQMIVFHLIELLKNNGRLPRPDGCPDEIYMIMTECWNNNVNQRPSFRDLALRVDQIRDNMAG
# Assay Protocol: phosphorylation enrichment, bacterial display (enrichment ratio); higher = better substrate or ligand; peptides without Tyr show the background
phosphorylation enrichment class ranges: b0 (below 0.7), b1 (0.7 to below 0.9), b2 (0.9 or more)

Sequence: DAICFYRMENA [NPHS2_Y195_YF]
Label Class: b2
//
Sequence: CNSFRYGGGGG [NPPA_Y151]
Label Class: b0
//
Sequence: VDTGVYAVPPP [BCAR1_Y410_S407T]
Label Class: b1
//
Sequence: DEEFEYMNRRR [ERBB3_Y1199_YF]
Label Class: b2
//
Sequence: ELELLYLDRNS [NYX_Y284]
Label Class: b1
//
Sequence: VHSGTYQVTVR [MYBPC3_Y1043]
Label Class: b0
//
Sequence: RSPLRYISILT [OR51B6_Y130_T131I]
Label Class: b0
//
Sequence: SVTCTGSPALN [TP53_Y126_Y126G]
Label Class: b1
//
Sequence: AHARMYGVLPW [PLP1_Y207_D203H]
Label Class: b0
//
Sequence: GKMPQYLESMQ [CYB5R3_Y130_S128P]
Label Class: b1

Exercise: Just checking, what class would you give ITVCDYTNPCT [MYD88_Y276] here?
Key: b2

Exercise: Further, for DSGRDYVSQFE [APOA1_Y53] ?
Key: b0

Exercise: Subsequent entry: EQKKYYNATKK [SCN5A_Y1495_M1498T]
Key: b0

Exercise: Now the sequence PRSRSYFSTSI [REPS2_Y462_S463F]
Key: b0

Exercise: Likewise for YISLIYTNYEA [GSTP1_Y109] ?
Key: b2

Exercise: Try this sequence too: VRALTYCDLHK [KCNH2_Y827]
Key: b0

Exercise: What would you report for ILNANCMAKRL [GLDC_Y839_Y839C] ?
Key: b0

Exercise: Next: RLLVIYPWTQR [HBG2_Y36_V35I]
Key: b2

Exercise: Okay, and VSLLPYFPAIM [IPO4_Y518_A513V] ?
Key: b2

Exercise: Follow-up entry: GHNNVYISEHV [GRIN2A_Y1423_D1421N]
Key: b1

Exercise: Continue with LGPSDYFGEIV [PRKAR1A_Y323_A328V]
Key: b2

Exercise: Note, next up: LEKRAYICAHP [ACAD9_Y611]
Key: b1

Exercise: // query: KRNSLYSFSDH [CCDC82_Y331_Q327R]
Key: b0

Exercise: Likewise for TLQNMYGCDVG [HLA-B_Y123_S121N] ?
Key: b2

Exercise: Now the same for FLQTDYTSQVS [FRMPD1_Y846]
Key: b1

Exercise: NPQKSYFILLY [WAS_Y83_R86L] , same question.
Key: b2
